- Tested on: ACHN renal
- assayComment: NCI tumour cell line growth inhibition, 48 h
reportedMetric: GI50

In [3]: df
Out[3]:
                                   compound          val
0  N#CC1=C(/N=C/c2ccccc2)Oc2c(ccc3ccccc23)C1c1ccccc1 (stereo not given)       591 nM
1      C(=N/N(Cc1ccccc1)Cc1ccccc1)/c1ccccc1  > 100000 nM
2  Cc1cccc2c3c(sc12)C(c1ccc(Cl)cc1)C(C#N)=C(N)O3 (stereo not given)       834 nM
3              CN(CCNCc1ccccn1)CCNCc1ccccn1      2200 nM
4          CCN(CC)CCCCCCNc1cc(OC)cc2cccnc12      1840 nM

---

- System: SF-295 CNS
- assayComment: NCI tumour cell line growth inhibition, 48 h
So basically: TGI at 4 µM or higher? That is criterion met. Lower than 4 µM? That is criterion not met.

compound	groupLabel
O=[N+]([O-])/C(C(Cl)=C(Cl)Cl)=C(/Cl)SCc1ccccc1	criterion met
C[C@]12C[C@@H](OC(=O)[C@]1(C)O)[C@@H]([C@]1(O)CC[C@H]3[C@@H]4C[C@H]5O[C@]56C[C@H]5O[C@H]5C(=O)[C@]6(C)[C@H]4CC[C@@]31C)C2	criterion met
COc1cc2nc(-c3cc(F)ccc3O)nc(N[C@@H]3CNC[C@H]3C(C)(C)O)c2cc1OC	criterion met
CCOC(=O)c1c(C)n(-c2ccc(Cl)cc2)c2c1cc(O)c1[nH]c3c(c12)CCCC3	criterion met
N#Cc1ccc(C=NC23CC4CC(CC(C4)C2)C3)cc1	criterion met
COC(=O)[C@H]1CCCN1C(=O)[C@H]1CCCN1C(=O)[C@@H](Cc1c[nH]c2ccccc12)NC(=S)Nc1cc(C(F)(F)F)cc(C(F)(F)F)c1	criterion not met
O=c1[nH]c(=S)nc2nc3c4ccc[nH]c4c4ccccc4c3nc12	criterion met
C[C@]12CC[C@@H]3c4cc(OC(F)F)c(OS(N)(=O)=O)cc4CC[C@H]3[C@@H]1CC[C@@H]2O	criterion not met
Nc1ncnc2oc(C3OC(COC(=O)c4ccccc4)C(OC(=O)c4ccccc4)C3OC(=O)c3ccccc3)nc12 (configuration not stated)	criterion met
COC(=O)c1ccc(S)c(S(=O)(=O)Nc2n[nH]c(N)n2)c1	criterion met
N#CC(c1ccccn1)c1nc2ccccc2[nH]1 (configuration not stated)	criterion met
C#CCNC(=O)[C@H](CC)[C@H]1CC[C@H](C)[C@H]([C@@H](C)[C@H](O)[C@H](C)C(=O)[C@H](CC)C2O[C@]3(C=CC(=O)[C@]4(CC[C@@](C)([C@H]5CC[C@](O)(CC)[C@H](C)O5)O4)O3)[C@H](C)C[C@@H]2C)O1 (some centres not stated)	criterion not met
Fc1ccc(N2C(=S)SC(=Nc3ccccc3)C2=Nc2ccccc2)cc1	criterion met
COc1cc2c(cc1OC)-c1ncc3c(OC)c(OC)c(OC)cc3c1C2	criterion met
C[N+](C)(C)CC1CCCC1=O (configuration not stated)	criterion met
CCOC(=O)N1N=C(/C(C)=N/OC)C(C)S1=O (configuration not stated)	criterion met
O=C(Nc1cccc(-n2cc(-c3ccncc3)c(-c3cc(O)cc(Cl)c3)n2)c1)c1cc(C(F)(F)F)cc(C(F)(F)F)c1	criterion met
